# procedure.summary: Solubilities of compounds of the invention
# Format: physicochemical
# condition.set: ethanol, organic solvent or mixture; read-out: Solubility Ethanol
Reported solubility values for the following compounds.

[
  {
    "compound": "C=Cc1ccc(O)c(OC)c1",
    "solubility": "> 100 mg/mL"
  },
  {
    "compound": "O=C(O)c1ccc(O)c(O)c1 [Protocatechuic acid, 3,4-Dihydroxybenzoic acid]",
    "solubility": "> 500 mg/mL"
  }
]

====

# Test system: B16-F1 cells
# procedure.summary: Melanogenesis inhibition (skin lightening) assay in cultured melanocyte cells, secreted melanin OD405
# Format: cell-based
# condition.set: 0.05 mg/ml, B16-F1 cells, 96 hours
endpoint.label: Melanogenesis Inhibition Activity

[
  {
    "compound": "O=C(O)c1ccc(O)c(O)c1 [Protocatechuic acid, 3,4-Dihydroxybenzoic acid]",
    "measured": 2
  },
  {
    "compound": "OC[C@H]1O[C@@H](Oc2ccc(O)cc2)[C@H](O)[C@@H](O)[C@@H]1O [Arbutin, reference compound]",
    "measured": 1
  },
  {
    "compound": "C=Cc1ccc(O)c(OC)c1",
    "measured": 6
  },
  {
    "compound": "CCc1ccc(O)c(OC)c1",
    "measured": 8
  },
  {
    "compound": "O=c1cc(CO)occ1O [Kojic acid, reference compound]",
    "measured": 0
  }
]
